Molecular target: Muscarinic acetylcholine receptor M2 (Homo sapiens, UniProt P08172); also: in other assays of this panel Not Active means under 50% inhibition at 10 µM
Sequence (P08172 whole entry): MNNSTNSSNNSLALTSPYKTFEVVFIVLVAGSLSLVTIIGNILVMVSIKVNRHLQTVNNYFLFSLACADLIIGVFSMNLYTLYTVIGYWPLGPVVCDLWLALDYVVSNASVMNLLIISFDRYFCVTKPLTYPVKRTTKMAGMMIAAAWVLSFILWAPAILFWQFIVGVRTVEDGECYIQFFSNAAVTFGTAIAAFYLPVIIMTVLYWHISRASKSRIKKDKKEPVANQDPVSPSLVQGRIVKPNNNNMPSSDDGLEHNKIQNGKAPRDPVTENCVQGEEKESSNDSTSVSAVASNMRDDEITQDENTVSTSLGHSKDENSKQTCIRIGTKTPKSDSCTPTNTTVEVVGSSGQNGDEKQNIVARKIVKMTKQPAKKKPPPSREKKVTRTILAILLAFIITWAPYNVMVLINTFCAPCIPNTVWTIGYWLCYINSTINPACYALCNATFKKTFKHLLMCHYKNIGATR
Format: cell membranes, CHO-K1, Membrane
Details: read-out: IC50
reported-endpoint: pIC50
Numbers only, as −log10 of the molar value.

The following molecules have reported results that may help.
CC(CN1c2ccccc2Sc2ccccc21)N(C)C (centres undefined) [PROMETHAZINE]	7.46
CC[C@H](C)[C@@H](CO[C@@H](Cc1ccccc1)C(=O)N[C@@H](CCS(C)(=O)=O)C(=O)OC(C)C)NC[C@@H](N)CS	5.45

Batch request: pIC50 per item, same order as input.
1. CC1(COc2ccc(CC3SC(=O)NC3=O)cc2)CCCCC1 (centres undefined) [CIGLITAZONE]
2. CCN(CCO)CCCC(C)Nc1ccnc2cc(Cl)ccc12 (centres undefined) [HYDROXYCHLOROQUINE]

Resp:
1. 4.68
2. 5.53

---

Assay: DRUGMATRIX: GABAA, Chloride Channel, TBOB radioligand binding (ligand: [3H] TBOB)
Assay type: cell membranes, Rattus norvegicus, Wistar, Cerebral cortex, Membrane
Conditions: Not Active = under 50% inhibition at 10 µM
reported-endpoint: Ki

The following molecules have reported results that may help.
COc1ccc(C[C@H](N)C(=O)N[C@H]2[C@@H](O)[C@H](n3cnc4c(N(C)C)ncnc43)O[C@@H]2CO)cc1	Not Active
CC(CN1c2ccccc2Sc2ccccc21)N(C)C (configuration not stated)	Not Active
CO[C@@H]1[C@@H](OC)[C@H](C)[C@@](O)(CC(=O)O)O[C@H]1[C@H](C)[C@H]1O[C@@]2(CC[C@@](C)([C@H]3CC[C@@](C)([C@@H]4O[C@@H]([C@H]5O[C@](C)(O)[C@H](C)C[C@@H]5C)C[C@@H]4O[C@@H]4C[C@H](OC)[C@@H](OC)[C@H](C)O4)O3)O2)C[C@H](O)[C@H]1C.N	Not Active
O=C1CC[C@@]2(O)[C@H]3Cc4ccc(O)c5c4[C@@]2(CCN3CC2CC2)[C@H]1O5 [NALTREXONE]	Not Active
CC[C@H](C)[C@@H](CO[C@@H](Cc1ccccc1)C(=O)N[C@@H](CCS(C)(=O)=O)C(=O)OC(C)C)NC[C@@H](N)CS	Not Active
C[C@]12CC[C@@H](O)C[C@@H]1CC[C@@H]1[C@@H]2CC[C@]2(C)C(=O)CC[C@@H]12	Not Active

Consider the additional molecule presented here.
Req: Need Ki, item CCN1CCN(C(=O)N[C@@H](C(=O)N[C@@H]2C(=O)N3[C@@H]2SC(C)(C)[C@@H]3C(=O)O)c2ccccc2)C(=O)C1=O
Resp: Not Active

---

Target: Substance-K receptor (Homo sapiens); also: in other assays of this panel Not Active means under 50% inhibition at 10 µM
Sequence (P21452 whole entry): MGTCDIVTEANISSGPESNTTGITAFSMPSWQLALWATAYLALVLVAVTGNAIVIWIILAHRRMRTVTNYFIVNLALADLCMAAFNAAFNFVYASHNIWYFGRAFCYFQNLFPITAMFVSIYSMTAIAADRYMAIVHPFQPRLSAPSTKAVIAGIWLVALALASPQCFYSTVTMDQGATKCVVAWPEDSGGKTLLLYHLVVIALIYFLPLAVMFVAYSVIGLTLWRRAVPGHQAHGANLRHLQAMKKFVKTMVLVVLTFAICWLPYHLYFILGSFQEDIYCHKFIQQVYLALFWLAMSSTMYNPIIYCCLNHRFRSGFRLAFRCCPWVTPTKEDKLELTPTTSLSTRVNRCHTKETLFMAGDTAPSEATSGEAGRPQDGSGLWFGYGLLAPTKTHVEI
Type: cell membranes, CHO, Membrane
Details: read-out: IC50
reported-endpoint: pIC50
Give bare numbers, as −log10 of the molar value.

The following compounds have reported results that may help.
Clc1cc(Cl)c(OCC#CI)cc1Cl	5.83
CC[C@H](C)[C@@H](CO[C@@H](Cc1ccccc1)C(=O)N[C@@H](CCS(C)(=O)=O)C(=O)OC(C)C)NC[C@@H](N)CS	5.79
CN1C[C@H](CNC(=O)OCc2ccccc2)C[C@@H]2c3cccc4c3c(cn4C)C[C@H]21	5.39
CN(CCOc1ccc(C[C@H](Nc2ccccc2C(=O)c2ccccc2)C(=O)O)cc1)c1ccccn1	4.84

Consider the additional compound presented here.
Req: Need pIC50, item CC1(COc2ccc(CC3SC(=O)NC3=O)cc2)CCCCC1 (stereo not given)
Resp: 4.90
